B1: MEF2-activating motif and SAP domain-containing transcriptional regulator, residues 170 to 204; numbered along this chain, Q6ZN01 (parent)
chain: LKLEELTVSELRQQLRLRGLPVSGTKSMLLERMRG

# Variants of: B1
# Experiment: abundance fitness (aPCA) (normalised: wild type 0, dead -1); higher = more abundant; growth selection in yeast, the domain comes from the species named
# Assay context: Homo sapiens
Assay endpoint: abundance fitness

INSERT INTO assay_data (variant_description, reported_measurement) VALUES
  ('L1V', -0.134),
  ('P21K', -0.494),
  ('T7H', -0.48),
  ('E4A', -0.667),
  ('S23Q', -0.147);

Cited source for all entries: the Human Domainome abundance scans (Beltran et al. 2025)
